- test-details: Determination of half-lives of the compounds in rats (oral, plasma HPLC)
- Format: in vivo
- experimental-parameters: rat, male Sprague-Dawley rats, 10 mg/kg (text also says 5 mg/kg), 0.5% methylcellulose
assay-endpoint: Tmax
Quote the value and follow it with the unit of measurement.

Some compounds with known Tmax results, for comparison:
compound="CN(C)CCCC1(c2ccc(N(C)C)cc2)OCc2cc(C#N)ccc21.O=C(O)C(=O)O (centres unmarked)" result="15 min"
compound="CN(C)CCCC1(c2ccc(F)cc2)OCc2cc(C#N)ccc21 (centres unmarked) [Citalopram, reference compound]" result="19.8 min"

q: Tmax lookup needed for COc1ccc(C2(CCCN(C)C)OCc3cc(C#N)ccc32)cc1.O=C(O)C(=O)O (centres unmarked) , thanks.
a: 19.8 min

q: Tmax lookup needed for N#Cc1ccc2c(c1)COC2(CCCn1ccnc1)c1cccs1.O=C(O)C(=O)O (centres unmarked) , thanks.
a: 15 min

q: Tmax lookup needed for CN(C)CCCC1(c2cccs2)OCc2cc(C#N)ccc21.O=C(O)C(=O)O (centres unmarked) , thanks.
a: 15 min

* * *

- Tested on: Male Wistar rats
- test-details: p-PCA-induced ejaculation in anesthetized rats (ejaculation-delaying effect)
- Type: in vivo, rat
- experimental-parameters: 50 mg/kg oral; p-PCA 5 mg/kg i.p.; mean ± standard deviation of responding rats
Class field: derived from Latency: Time to display the ejaculatory response; ranges 1 (below 900 s), 2 (900 s to below 1000 s), 3 (1000 s or more)

q: Please indicate the class for CN(C)CCCC1(c2ccccc2)OCc2cc(C#N)ccc21.Cl (centres unmarked) [Ex. 13] based on its Latency: Time to display the ejaculatory response.
a: 1

q: Please indicate the class for COc1ccc(C2(CCCn3cccn3)OCc3cc(C#N)ccc32)cc1 (centres unmarked) [Ex. 8] based on its Latency: Time to display the ejaculatory response.
a: 3

* * *

Below is a list of entries, each paired with its recorded pIC50 value.
- tested-on: 5HT1A receptor (Homo sapiens)
- Sequence (P08908 1-422): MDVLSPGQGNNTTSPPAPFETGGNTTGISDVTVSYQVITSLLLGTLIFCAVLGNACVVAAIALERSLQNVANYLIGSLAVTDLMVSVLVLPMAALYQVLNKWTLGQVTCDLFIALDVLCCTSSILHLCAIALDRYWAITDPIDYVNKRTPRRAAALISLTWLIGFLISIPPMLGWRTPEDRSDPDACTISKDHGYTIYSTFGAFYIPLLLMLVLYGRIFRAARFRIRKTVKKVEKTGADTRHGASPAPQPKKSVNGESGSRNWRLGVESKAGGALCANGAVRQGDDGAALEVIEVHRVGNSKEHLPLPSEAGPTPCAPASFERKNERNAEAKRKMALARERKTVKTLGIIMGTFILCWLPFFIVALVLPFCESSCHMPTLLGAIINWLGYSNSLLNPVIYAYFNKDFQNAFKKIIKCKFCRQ
- test-details: Radioligand competitive binding assay
- experimental-parameters: human-derived recombinant CHO cells
Worth noting: pIC50 values are minus log10 of concentrations stated in mol/L.

molecule="CN(C)CCCC1(c2cccs2)OCc2cc(C#N)ccc21.O=C(O)C(=O)O (stereo not shown) [Ex. 40, oxalate]" quantitative_result=3.01

q: pIC50 lookup needed for CN(C)CCCC1(c2ccc(N(C)C)cc2)OCc2cc(C#N)ccc21.O=C(O)C(=O)O (stereo not shown) [Ex. 35, oxalate] , thanks.
a: 2.95

q: pIC50 lookup needed for COc1ccc(C2(CCCN(C)C)OCc3cc(C#N)ccc32)cc1.O=C(O)C(=O)O (stereo not shown) [Ex. 2, oxalate] , thanks.
a: 3.09

q: pIC50 lookup needed for N#Cc1ccc2c(c1)COC2(CCCn1ccnc1)c1cccs1.O=C(O)C(=O)O (stereo not shown) [Ex. 45, oxalate] , thanks.
a: 3.05
